Measured values drawn from ChEMBL document CHEMBL2401723 for this set.

Assay: Kinetic solubility in PBS buffer at pH 7.4 after 18 hrs by UV-spectroscopic analysis
Format: physicochemical
Conditions: PBS buffer, pH 7.4; read-out: Kinetic_solubility
endpoint.label: solubility kinetic at 18 h (µM)

[[record]]
compound = "O=C(CCl)Nc1cccc(-c2nc3ccccc3s2)c1"
unit_spec = "µM"
observed = 1

[[record]]
compound = "O=C(Nc1ccc(F)c(-c2nc3ccccc3s2)c1)c1cnccc1Cl"
unit_spec = "µM"
observed = 0.08

[[record]]
compound = "C=C(C)C(=O)Nc1cccc(-c2nc3ccccc3s2)c1"
unit_spec = "µM"
observed = 0.42

[[record]]
compound = "O=C(O)/C=C/C(=O)Nc1cccc(-c2nc3ccccc3s2)c1"
unit_spec = "µM"
observed = 56

[[record]]
compound = "O=C(Nc1ccc(Cl)cc1)c1cc([N+](=O)[O-])ccc1Cl"
unit_spec = "µM"
observed = 3

[[record]]
compound = "CC(Cl)C(=O)Nc1cccc(-c2nc3ccccc3s2)c1 (configuration not stated)"
unit_spec = "µM"
observed = 0.83

[[record]]
compound = "C/C=C/C(=O)Nc1cccc(-c2nc3ccccc3s2)c1"
unit_spec = "µM"
observed = 0.11

[[record]]
compound = "C=CC(=O)Nc1cccc(-c2nc3ccccc3s2)c1"
unit_spec = "µM"
observed = 0.18

[[record]]
compound = "O=C(Nc1cccc(-c2nc3ccccc3s2)c1)c1ccncc1Cl"
unit_spec = "µM"
observed = 0.32

[[record]]
compound = "Cc1ccc(-c2nc3ccccc3o2)cc1NC(=O)c1cnccc1Cl"
unit_spec = "µM"
observed = 0.51

[[record]]
compound = "COc1ccc(-c2nc3ccccc3s2)cc1NC(=O)c1cnccc1Cl"
unit_spec = "µM"
observed = 0.34

[[record]]
compound = "CN(C)CCC(=O)Nc1cccc(-c2nc3ccccc3s2)c1"
unit_spec = "µM"
observed = 56


----------
System: HEK293
Assay: Cytotoxicity against HEK293 cells assessed as growth inhibition after 72 hrs by Cell-Titer Glo assay
Assay type: cell-based
Details: Homo sapiens, HEK293, 72 h
pEC50: −log10 of the molar value.
Overview of reported pEC50 across a group of compounds:
endpoint.label: pEC50

[[record]]
compound = "O=C(Nc1cccc(-c2nc3ccccc3s2)c1)c1cccnc1Cl"
observed = "< 4.60"

[[record]]
compound = "CN(C)CCC(=O)Nc1cccc(-c2nc3ccccc3s2)c1"
observed = "< 4.60"

[[record]]
compound = "O=C(Nc1cccc(-c2nc3ccccc3s2)c1)c1cnccc1Cl"
observed = "< 4.60"

[[record]]
compound = "Cc1ccc(-c2nc3ccccc3s2)cc1NC(=O)c1cnccc1Cl"
observed = "< 4.60"

[[record]]
compound = "C=C(C)C(=O)Nc1cccc(-c2nc3ccccc3s2)c1"
observed = "< 4.60"

[[record]]
compound = "COc1ccc(-c2nc3ccccc3o2)cc1NC(=O)c1cnccc1Cl"
observed = "< 4.60"

[[record]]
compound = "O=C(Nc1cccc(-c2nc3ccccc3s2)c1)c1cnc(Cl)s1"
observed = "< 4.60"

[[record]]
compound = "O=C(Nc1cc(-c2nc3ccccc3o2)ccc1F)c1cnccc1Cl"
observed = "< 4.60"

[[record]]
compound = "O=C(Nc1ccc(F)c(-c2nc3ccccc3o2)c1)c1cnccc1Cl"
observed = "< 4.60"

[[record]]
compound = "O=C(Nc1cccc(-c2nc3ccccc3s2)c1)c1cc([N+](=O)[O-])cnc1Cl"
observed = "< 4.60"

[[record]]
compound = "CC(Cl)C(=O)Nc1cccc(-c2nc3ccccc3s2)c1 (configuration not stated)"
observed = "< 4.60"

[[record]]
compound = "Cc1ccc(-c2nc3ccccc3o2)cc1NC(=O)c1cnccc1Cl"
observed = "< 4.60"


----------
Experiment: Half life in human liver microsomes
Type: ADME, Microsome
endpoint.label: half-life (h)

[[record]]
sample_smiles = "Cc1ccc(-c2nc3ccccc3s2)cc1NC(=O)c1cnccc1Cl"
endpoint_label = "half-life"
relation_symbol = "="
observed = 3.7

[[record]]
sample_smiles = "O=C(Nc1ccc(F)c(-c2nc3ccccc3s2)c1)c1cnccc1Cl"
endpoint_label = "half-life"
relation_symbol = ">"
observed = 4


----------
Experiment: Permeability of the compound by PAMPA
Format: ADME
Overview of reported permeability across a group of compounds:
endpoint.label: permeability (×10⁻⁶ cm/s)

[[record]]
sample_smiles = "C/C=C/C(=O)Nc1cccc(-c2nc3ccccc3s2)c1"
endpoint_label = "permeability"
observed = 1640

[[record]]
sample_smiles = "CN(C)CCC(=O)Nc1cccc(-c2nc3ccccc3s2)c1"
endpoint_label = "permeability"
observed = 2080


----------
Test system: Raji
Test: Cytotoxicity against human Raji cells assessed as growth inhibition after 72 hrs by Cell-Titer Glo assay
Format: cell-based
endpoint.label: EC50

[[record]]
molecule = "CC(Cl)C(=O)Nc1cccc(-c2nc3ccccc3s2)c1 (centres undefined)"
observed = "> 25 µM"

[[record]]
molecule = "CN(C)CCC(=O)Nc1cccc(-c2nc3ccccc3s2)c1"
observed = "> 25 µM"

[[record]]
molecule = "O=C(Nc1cccc(-c2nc3ccccc3s2)c1)c1cccnc1Cl"
observed = "> 25 µM"

[[record]]
molecule = "O=C(Nc1cc(-c2nc3ccccc3s2)ccc1F)c1cnccc1Cl"
observed = "> 25 µM"

[[record]]
molecule = "C=C(C)C(=O)Nc1cccc(-c2nc3ccccc3s2)c1"
observed = "> 25 µM"

[[record]]
molecule = "O=C(Nc1cccc(-c2nc3ccccc3s2)c1)c1cc([N+](=O)[O-])cnc1Cl"
observed = "8.4 µM"

[[record]]
molecule = "O=C(CCl)Nc1cccc(-c2nc3ccccc3s2)c1"
observed = "1.7 µM"

[[record]]
molecule = "CC(C)(CCl)C(=O)Nc1cccc(-c2nc3ccccc3s2)c1"
observed = "> 25 µM"

[[record]]
molecule = "C=CC(=O)Nc1cccc(-c2nc3ccccc3s2)c1"
observed = "> 25 µM"

[[record]]
molecule = "O=C(O)/C=C/C(=O)Nc1cccc(-c2nc3ccccc3s2)c1"
observed = "> 25 µM"

[[record]]
molecule = "O=C(Nc1ccc(F)c(-c2nc3ccccc3o2)c1)c1cnccc1Cl"
observed = "> 25 µM"

[[record]]
molecule = "O=C(Nc1cccc(-c2nc3ccccc3s2)c1)c1cnc(Cl)s1"
observed = "> 25 µM"

[[record]]
molecule = "O=C(Nc1cccc(-c2nc3ccccc3s2)c1)c1ccnc(Cl)c1"
observed = "> 25 µM"

[[record]]
molecule = "COc1ccc(-c2nc3ccccc3o2)cc1NC(=O)c1cnccc1Cl"
observed = "> 25 µM"

[[record]]
molecule = "Cc1ccc(-c2nc3ccccc3o2)cc1NC(=O)c1cnccc1Cl"
observed = "> 25 µM"

[[record]]
molecule = "COc1ccc(-c2nc3ccccc3s2)cc1NC(=O)c1cnccc1Cl"
observed = "13 µM"

[[record]]
molecule = "O=C(Nc1cccc(-c2nc3ccccc3s2)c1)c1ccncc1Cl"
observed = "> 25 µM"

[[record]]
molecule = "O=C(Nc1ccc(F)c(-c2nc3ccccc3s2)c1)c1cnccc1Cl"
observed = "> 25 µM"

[[record]]
molecule = "O=C(Nc1ccc(Cl)cc1)c1cc([N+](=O)[O-])ccc1Cl"
observed = "> 25 µM"

[[record]]
molecule = "O=C(Nc1cc(-c2nc3ccccc3o2)ccc1F)c1cnccc1Cl"
observed = "> 25 µM"

[[record]]
molecule = "O=C(Nc1cccc(-c2nc3ccccc3s2)c1)c1cnccc1Cl"
observed = "12 µM"

[[record]]
molecule = "C/C=C/C(=O)Nc1cccc(-c2nc3ccccc3s2)c1"
observed = "> 25 µM"

[[record]]
molecule = "Cc1ccc(-c2nc3ccccc3s2)cc1NC(=O)c1cnccc1Cl"
observed = "> 25 µM"

[[record]]
molecule = "O=C(Nc1cccc(-c2nc3ccccc3s2)c1)c1ccc(Cl)nc1Cl"
observed = "> 25 µM"


----------
Overview of reported solubility kinetic at 18 h across a group of molecules:
Test: Kinetic solubility in PBS buffer at pH 7.4 after 18 hrs by UV-spectroscopic analysis
Type: physicochemical
Conditions: PBS buffer, pH 7.4; read-out: Kinetic_solubility
endpoint.label: solubility kinetic at 18 h

[[record]]
sample_smiles = "Cc1ccc(-c2nc3ccccc3s2)cc1NC(=O)c1cnccc1Cl"
endpoint_label = "solubility kinetic at 18 h"
observed = "0.14 µM"

[[record]]
sample_smiles = "O=C(Nc1cccc(-c2nc3ccccc3s2)c1)c1ccnc(Cl)c1"
endpoint_label = "solubility kinetic at 18 h"
observed = "0.74 µM"

[[record]]
sample_smiles = "O=C(Nc1ccc(F)c(-c2nc3ccccc3o2)c1)c1cnccc1Cl"
endpoint_label = "solubility kinetic at 18 h"
observed = "0.67 µM"

[[record]]
sample_smiles = "O=C(Nc1cccc(-c2nc3ccccc3s2)c1)c1cccnc1Cl"
endpoint_label = "solubility kinetic at 18 h"
observed = "0.52 µM"

[[record]]
sample_smiles = "O=C(Nc1cccc(-c2nc3ccccc3s2)c1)c1cnc(Cl)s1"
endpoint_label = "solubility kinetic at 18 h"
observed = "0.94 µM"

[[record]]
sample_smiles = "COc1ccc(-c2nc3ccccc3o2)cc1NC(=O)c1cnccc1Cl"
endpoint_label = "solubility kinetic at 18 h"
observed = "1.68 µM"

[[record]]
sample_smiles = "O=C(Nc1cccc(-c2nc3ccccc3s2)c1)c1ccc(Cl)nc1Cl"
endpoint_label = "solubility kinetic at 18 h"
observed = "0.35 µM"

[[record]]
sample_smiles = "O=C(Nc1cccc(-c2nc3ccccc3s2)c1)c1cnccc1Cl"
endpoint_label = "solubility kinetic at 18 h"
observed = "0.32 µM"

[[record]]
sample_smiles = "O=C(Nc1cc(-c2nc3ccccc3o2)ccc1F)c1cnccc1Cl"
endpoint_label = "solubility kinetic at 18 h"
observed = "0.13 µM"

[[record]]
sample_smiles = "O=C(Nc1cc(-c2nc3ccccc3s2)ccc1F)c1cnccc1Cl"
endpoint_label = "solubility kinetic at 18 h"
observed = "0.18 µM"

[[record]]
sample_smiles = "O=C(Nc1cccc(-c2nc3ccccc3s2)c1)c1cc([N+](=O)[O-])cnc1Cl"
endpoint_label = "solubility kinetic at 18 h"
observed = "0.45 µM"

